# subject_of_test: α4β2 neuronal nicotinic receptor subtype (Rattus norvegicus, UniProt P09483+P12390)
# Construct: Membrane enriched fractions from rat brain minus cerebellum; tissue ABS Inc., Wilmington, DE; host or cells: rat brain minus cerebellum, membrane enriched fractions
# Sequence (P09483 31-630): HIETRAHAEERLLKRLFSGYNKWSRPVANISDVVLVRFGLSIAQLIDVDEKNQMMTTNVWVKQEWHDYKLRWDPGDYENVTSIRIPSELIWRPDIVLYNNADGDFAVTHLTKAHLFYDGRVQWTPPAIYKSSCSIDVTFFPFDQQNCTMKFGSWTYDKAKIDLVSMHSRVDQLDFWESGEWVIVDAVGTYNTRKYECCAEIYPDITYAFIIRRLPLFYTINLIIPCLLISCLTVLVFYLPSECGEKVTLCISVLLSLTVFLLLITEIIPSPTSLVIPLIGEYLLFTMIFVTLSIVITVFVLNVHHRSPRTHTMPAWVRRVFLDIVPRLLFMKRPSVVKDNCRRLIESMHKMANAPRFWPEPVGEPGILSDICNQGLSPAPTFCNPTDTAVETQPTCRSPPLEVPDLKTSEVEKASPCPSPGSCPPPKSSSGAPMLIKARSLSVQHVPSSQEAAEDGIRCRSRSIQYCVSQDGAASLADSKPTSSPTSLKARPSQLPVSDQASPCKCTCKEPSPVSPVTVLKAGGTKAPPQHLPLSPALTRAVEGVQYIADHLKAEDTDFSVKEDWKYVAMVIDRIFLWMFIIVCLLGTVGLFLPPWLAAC
# Sequence (P12390 25-500): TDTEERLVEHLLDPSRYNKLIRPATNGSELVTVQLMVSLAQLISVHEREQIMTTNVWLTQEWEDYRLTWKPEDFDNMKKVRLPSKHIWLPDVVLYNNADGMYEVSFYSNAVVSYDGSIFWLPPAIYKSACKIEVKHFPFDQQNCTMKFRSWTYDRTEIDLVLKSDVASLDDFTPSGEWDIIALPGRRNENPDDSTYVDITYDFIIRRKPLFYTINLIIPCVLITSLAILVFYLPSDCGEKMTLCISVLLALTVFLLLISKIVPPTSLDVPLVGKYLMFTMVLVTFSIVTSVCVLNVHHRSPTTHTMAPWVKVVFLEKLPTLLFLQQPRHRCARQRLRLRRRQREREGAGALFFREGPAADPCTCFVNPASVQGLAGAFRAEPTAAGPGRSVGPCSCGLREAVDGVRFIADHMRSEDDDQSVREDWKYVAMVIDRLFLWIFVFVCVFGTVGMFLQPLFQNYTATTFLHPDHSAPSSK
# test: [3H]-cytisine binding assay, rat brain membrane preparation
# condition: [3H]-cytisine binding site; read-out: binding affinity Ki
pKi: −log10 of the molar value.
reported_endpoint: pKi

# compound, experimental_value
rows = [
    ("c1cncc(N2CC[C@@H]3CNC[C@@H]32)c1", 8.06),
    ("Clc1ccc(-c2cc(OC[C@@H]3CCCN3)cnc2Cl)cc1", 10.40),
    ("c1ccc2ncc(N3CC4CNCC4C3)cc2c1 (stereo not drawn)", 8.82),
]
